Tested on: recombinant NL4-3 virus (Renilla luciferase in nef)
Test: HIV cell culture assay (antiviral activity, luciferase readout in MT-2 cells)
Format: cell-based
Conditions: Renilla, NL43
Text: HIV cell culture assay—MT=2 cells, 293T cells and the proviral DNA clone of NL4-3 virus were obtained from the NIH AIDS Research and Reference Reagent Program. […] Luciferase was quantitated using the EnduRen Live Cell Substrate from Promega (Madison, Wis.). Antiviral activities of compounds toward the recombinant virus were quantified by measuring luciferase activity in MT=2 cells infected for 4-5 days with the recombinant virus in the presence of serial dilutions of the compound. […]
Listed here: items and their measured EC50.

molecule	target	EC50 (nM)
Cn1nc(NS(C)(=O)=O)c2c(Cl)ccc(-n3c([C@H](Cc4cc(F)cc(F)c4)NC(=O)Cn4nc(C(F)F)c5c4C(F)(F)[C@H]4C[C@H]54)nc4cc(-c5cnn(C(F)F)c5)ccc4c3=O)c21 (atropisomer, axis not shown; (P))	recombinant NL4-3 virus (Renilla luciferase in nef)	0.092
Cn1nc(NS(C)(=O)=O)c2c(Cl)ccc(-n3c([C@H](Cc4cc(F)cc(F)c4)NC(=O)Cn4nc(C(F)F)c5c4C(F)(F)[C@@H]4C[C@H]54)nc4cc(-c5ccn(CCC(F)(F)F)n5)ccc4c3=O)c21 (atropisomer, axis not shown; (P))	recombinant NL4-3 virus (Renilla luciferase in nef)	0.066
Cn1nc(NS(C)(=O)=O)c2c(Cl)ccc(-n3c([C@H](Cc4cc(F)cc(F)c4)NC(=O)Cn4nc(C(F)F)c5c4C(F)(F)[C@@H]4C[C@H]54)nc4cc(-c5ccn(CCOC(F)(F)F)n5)ccc4c3=O)c21 (atropisomer, axis not shown; (P))	recombinant NL4-3 virus (Renilla luciferase in nef)	0.098
Cn1nc(NS(C)(=O)=O)c2c(Cl)ccc(-n3c([C@H](Cc4cc(F)cc(F)c4)NC(=O)Cn4nc(C(F)F)c5c4C(F)(F)[C@@H]4C[C@H]54)nc4cc(-c5cnn(CC(F)F)c5)ccc4c3=O)c21 (atropisomer, axis not shown; (P))	recombinant NL4-3 virus (Renilla luciferase in nef)	0.054
